molecular target: human α-synuclein (Homo sapiens); construct: the full-length gene for untagged human α-synuclein was inserted; made in house; host or cells: E. coli BL21(DE3), plasmid derived from pT7 or pET11a; assay: Cell-free Thioflavin T assay of α-synuclein aggregation (αSyn ThT Assay); format: biochemical; conditions: mean % inhibition of αSyn aggregation relative to DMSO control; αSyn 50 μM; compounds at 100 μM; read-out: αSyn ThT Assay % Inhibition
Give measured inhibition at 100 µM for each item. Keep answers brief.
Report only the number, with the unit % understood.

Task: What value of inhibition at 100 µM on human α-synuclein (Homo sapiens) does COc1ccc(CN2C[C@@H](C(=O)O)n3c(c(-c4cccc(C(F)(F)F)c4)c(Cc4cccc5ccccc45)cc3=O)S2(=O)=O)cc1 (single isomer, unassigned) [Compound 026a] have?
Output: 51

Task: What value of inhibition at 100 µM on human α-synuclein (Homo sapiens) does CCCCCN1CC(C(=O)O)n2c(c(-c3cccc(C(F)(F)F)c3)c(Cc3cccc4ccccc34)cc2=O)S1(=O)=O (racemic) [Compound 025] have?
Output: 59

Task: What value of inhibition at 100 µM on human α-synuclein (Homo sapiens) does O=C(O)C1COc2c(-c3cccc(C(F)(F)F)c3)c(Cc3cccc4ccccc34)cc(=O)n21 (stereo not shown) have?
Output: 37

Task: What value of inhibition at 100 µM on human α-synuclein (Homo sapiens) does O=C(O)C1CN(CCCCO)S(=O)(=O)c2c(-c3cccc(C(F)(F)F)c3)c(Cc3cccc4ccccc34)c(NC3CCCC3)c(=O)n21 (stereo not shown) have?
Output: 27

Data credit: patent US20230131899A1
